# assayed target: T1, cynomolgus CD73 expressed on a recombinant host cell line (cynomolgus)
# T1 construct: whole, on cells; also called cynoCD73
# assay summary: flow cytometry titration on a cynomolgus-CD73-expressing recombinant host cell line, median of fluorescence
parameter: EC50 (read off the curve)

Query block: Consider the binder antibody 8C7 (antibody, human IgG1, V domains shown, Produced as chimeric human IgG1 with heavy chain N297Q (Kabat EU numbering); RTVAAP)) VH: EVQLQQSGPELVKPGASVKVSCKASGYAFASYNMNWVKQSHGKSLDWIGYIDPYNGGSSYNLTFKGKATLTVDKSSTTAYMHLNSLTSEDSAVYYCARGYGNYKAWFAYWGQGTLVTVSA VL: SIVMTPTPKFLLVSAGDRVTITCKASQSVSNDVAWYQQKPGQSPKLLIYYASTRYTGVPDRFTGSGYGTDFTFTISTVQAEDLAVYFCQQDYSSLTFGAGTKLELKR and give its measured EC50 (read off the curve).
Result block: ~0.4 mg/L
